Can you tell me LD50 (open)^3h for the items I'm about to list?
test system: D. rerio embryos; test: D. rerio embryotoxicity assay, direct application of ring-open photoform; format: in vivo, Danio rerio; conditions: direct application of 1 or ring-open photoform; zebrafish embryos at 3 dpf; 3 h incubation; final DMSO 0.2%; ambient light; value ± STD
Starred links: 1 amine or outer side, 2 acyl side, 3 side chain; linkers in the order of their positions; H or OH if unused. Positions of bridges follow the written chain, without caps; N, C: chain ends. Non-standard residues stand in square brackets, D forms with d. Residues, ends and D or L forms follow the SMILES beside them. *: point of attachment. X2 = Cc1sc(C(=O)[C@@H]2CCCN2[*:2])cc1C1=C(c2cc(C(=O)[*:1])sc2C)CCC1; Leu(3R-OH) = CC(C)[C@@H](O)[C@H](N)C(=O)O; NMeL = CN[C@@H](CC(C)C)C(=O)O; Isobutyryl = CC(C)C(=O)*; Orn = NCCC[C@H](N)C(=O)O; Dab = NCC[C@H](N)C(=O)O
Answers are plain numbers, in µg/mL.

Provide reported LD50 (open)^3h for each item, in the same order as listed.
1. Cc1sc2cc1C1=C(CCC1)c1cc(sc1C)C(=O)[C@@H]1CCCN1C(=O)[C@H]([C@H](O)C(C)C)NC(=O)[C@H](CCCN)NC(=O)[C@H](C(C)C)NC(=O)[C@@H]1CCCN1C(=O)[C@@H](Cc1ccccc1)NC(=O)[C@H](C(C)C)NC(=O)[C@H](CCCN)NC(=O)[C@H](C(C)C)NC2=O [Peptide 14]
2. Cc1sc2cc1C1=C(CCC1)c1cc(sc1C)C(=O)[C@@H]1CCCN1C(=O)[C@H](C)NC(=O)[C@H](CCCN)NC(=O)[C@H](C(C)C)NC(=O)[C@@H]1CCCN1C(=O)[C@@H](Cc1ccccc1)NC(=O)[C@H](CC(C)C)NC(=O)[C@H](CCCN)NC(=O)[C@H](C)NC2=O [Peptide 4] (A[Orn]L[dF]PV[Orn]A; linker N-C via X2)
3. CC[C@H](C)[C@@H]1NC(=O)c2cc(c(C)s2)C2=C(CCC2)c2cc(sc2C)C(=O)[C@@H]2CCCN2C(=O)[C@H](CC(C)C)NC(=O)[C@H](CCCN)NC(=O)[C@H]([C@@H](C)CC)NC(=O)[C@@H]2CCCN2C(=O)[C@H]2CCCN2C(=O)[C@H](CC(C)C)NC(=O)[C@H](CCCN)NC1=O [Peptide 9] (I[Orn]L[dP]PI[Orn]L; linker N-C via X2)
4. Cc1sc2cc1C1=C(CCC1)c1cc(sc1C)C(=O)[C@@H]1CCCN1C(=O)[C@H](C(C)C)NC(=O)[C@H](CCCN)NC(=O)[C@H](C(C)C)NC(=O)[C@@H]1CCCN1C(=O)[C@@H](Cc1ccccc1)NC(=O)[C@H](C(C)C)NC(=O)[C@H](CCCN)NC(=O)[C@H]([C@H](O)C(C)C)NC2=O [Peptide 12] ([Leu(3R-OH)][Orn]V[dF]PV[Orn]V; linker N-C via X2)

1. 6.2
2. 40.6
3. 2.1
4. 6.7

Lab note: each molecule below needs its LD50 (open)^3h filled in.
1. CC(C)C[C@@H]1NC(=O)[C@H](CCCN)NC(=O)[C@H](C(C)C)NC(=O)[C@@H]2CCCN2C(=O)[C@@H](Cc2ccccc2)NC(=O)[C@H](CC(C)C)NC(=O)[C@H](CCCN)NC(=O)[C@H](C(C)C)NC(=O)[C@@H]2CCCN2C(=O)[C@@H](Cc2ccccc2)NC1=O [Peptide 1, gramicidin S, reference compound] (cyclo(L[dF]PV[Orn]L[dF]PV[Orn]))
2. Cc1sc2cc1C1=C(CCC1)c1cc(sc1C)C(=O)[C@@H]1CCCN1C(=O)[C@H](C(C)C)NC(=O)[C@H](CCCN)NC(=O)[C@H]([C@H](O)C(C)C)NC(=O)[C@@H]1CCCN1C(=O)[C@@H](Cc1ccccc1)NC(=O)[C@H](C(C)C)NC(=O)[C@H](CCCN)NC(=O)[C@H](C(C)C)NC2=O [Peptide 13] (V[Orn]V[dF]P[Leu(3R-OH)][Orn]V; linker N-C via X2)
3. CC[C@H](C)[C@@H]1NC(=O)c2cc(c(C)s2)C2=C(CCC2)c2cc(sc2C)C(=O)[C@@H]2CCCN2C(=O)[C@H]([C@@H](C)CC)NC(=O)[C@H](CCCN)NC(=O)[C@H](CC(C)C)NC(=O)[C@H](CC(C)C)N(C)C(=O)[C@@H](Cc2ccccc2)NC(=O)[C@H]([C@@H](C)CC)NC(=O)[C@H](CCCN)NC1=O [Peptide 10] (I[Orn]I[dF][NMeL]L[Orn]I; linker N-C via X2)
4. Cc1sc2cc1C1=C(CCC1)c1cc(sc1C)C(=O)[C@@H]1CCCN1C(=O)[C@H](CC(C)C)NC(=O)[C@H](CCCN)NC(=O)[C@H](C(C)C)NC(=O)[C@@H]1CCCN1C(=O)[C@@H](Cc1ccccc1)NC(=O)[C@H](CC(C)C)NC(=O)[C@H](CCCN)NC(=O)[C@H](CCCN)NC2=O [Peptide 5]
5. Cc1sc2cc1C1=C(CCC1)c1cc(sc1C)C(=O)[C@@H]1CCCN1C(=O)[C@H](C(C)C)NC(=O)[C@H](CCCN)NC(=O)[C@H]([C@H](O)C(C)C)NC(=O)[C@@H]1CCCN1C(=O)[C@@H](Cc1ccccc1)NC(=O)[C@H](C(C)C)NC(=O)[C@H](CCCN)NC(=O)[C@H]([C@H](O)C(C)C)NC2=O [Peptide 15] ([Leu(3R-OH)][Orn]V[dF]P[Leu(3R-OH)][Orn]V; linker N-C via X2)
6. Cc1sc2cc1C1=C(CCC1)c1cc(sc1C)C(=O)[C@@H]1CCCN1C(=O)[C@H](CC(C)C)NC(=O)[C@H](CCCCN)NC(=O)[C@H](C(C)C)NC(=O)[C@H](CCCCN)NC(=O)[C@H](CC(C)C)NC(=O)[C@@H]1CCCN1C(=O)[C@@H](Cc1ccccc1)NC(=O)[C@H](C(C)C)NC(=O)[C@H](CCCCN)NC(=O)[C@H](CC(C)C)NC(=O)[C@H](CCCCN)NC(=O)[C@H](C(C)C)NC2=O [Peptide 16] (VKLKV[dF]PLKVKL; linker N-C via X2)
7. Cc1sc2cc1C1=C(CCC1)c1cc(sc1C)C(=O)[C@@H]1CCCN1C(=O)[C@H](C(C)C)NC(=O)[C@H](CCCN)NC(=O)[C@H](C(C)C)NC(=O)[C@@H]1CCCN1C(=O)[C@@H](Cc1ccccc1)NC(=O)[C@H](C(C)C)NC(=O)[C@H](CCCN)NC(=O)[C@H](CCNC(=O)C(C)C)NC2=O [Peptide 8] ([Dab](Isobutyryl)[Orn]V[dF]PV[Orn]V; linker N-C via X2)

1: 2.0; 2: 4.3; 3: 1.0; 4: 2.8; 5: 14.1; 6: 3.1; 7: 5.7
